For each record, write down the corresponding EC50.
system.tested: Glutamate receptor 1 (Rattus norvegicus)
assay.notes: Agonist activity at GluR1 expressed in HEK293 cells by Fluo-4/Ca2+ assay
Numbers only, in µM.

Known results for compounds:
CCn1nnc(-c2o[nH]c(=O)c2CC(N)C(=O)O)n1 (racemic)
42
CC(C)n1nnc(-c2onc(O)c2CC(N)C(=O)O)n1 (racemic)
550

Please find the next compound below.
Exam item: Consider the compound CCCn1nnc(-c2onc(O)c2CC(N)C(=O)O)n1 (racemic) and give its measured EC50.
Marked response: 480
